Values compiled from ChEMBL document CHEMBL2150885.

Test system: Platelet
Method: Antiplatelet activity against thrombin receptor-activating peptide-6-induced platelet aggregation in human blood at 6.25 x 10^-4 M measured for 6 mins by multiplate electrical impedance aggregometry
Format: functional, cell-based
Can you tell me AUC for the items I'm about to list?

compound="O=c1ccc2cc(O[C@@H]3O[C@H](COS(=O)(=O)[O-])[C@@H](OS(=O)(=O)[O-])[C@H](OS(=O)(=O)[O-])[C@H]3OS(=O)(=O)[O-])c(OS(=O)(=O)[O-])cc2o1.[Na+].[Na+].[Na+].[Na+].[Na+] [ESCULIN PERSULFATE]" quantity_kind=AUC val="890 AU.min"
compound=C[C@@H]1O[C@@H](OC[C@H]2O[C@@H](Oc3c(-c4ccc(OCCOS(=O)(=O)[O-])c(OCCOS(=O)(=O)[O-])c4)oc4cc(OCCOS(=O)(=O)[O-])cc(O)c4c3=O)[C@H](OS(=O)(=O)[O-])[C@@H](OS(=O)(=O)[O-])[C@@H]2OS(=O)(=O)[O-])[C@H](OS(=O)(=O)[O-])[C@H](OS(=O)(=O)[O-])[C@H]1OS(=O)(=O)[O-].[Na+].[Na+].[Na+].[Na+].[Na+].[Na+].[Na+].[Na+].[Na+] quantity_kind=AUC val="840 AU.min"
compound="O=C1O[C@H]([C@H](COS(=O)(=O)[O-])OS(=O)(=O)[O-])C(OS(=O)(=O)[O-])=C1OS(=O)(=O)[O-].[Na+].[Na+].[Na+].[Na+] [ASCORBIC ACID PERSULFATE]" quantity_kind=AUC val="1100 AU.min"
compound=C[C@@H]1O[C@@H](OC[C@H]2O[C@@H](Oc3c(-c4ccc(OS(=O)(=O)[O-])c(OS(=O)(=O)[O-])c4)oc4cc(OS(=O)(=O)[O-])cc(OS(=O)(=O)[O-])c4c3=O)[C@H](OS(=O)(=O)[O-])[C@@H](OS(=O)(=O)[O-])[C@@H]2OS(=O)(=O)[O-])[C@H](OS(=O)(=O)[O-])[C@H](OS(=O)(=O)[O-])[C@H]1OS(=O)(=O)[O-].[Na+].[Na+].[Na+].[Na+].[Na+].[Na+].[Na+].[Na+].[Na+].[Na+] quantity_kind=AUC val="950 AU.min"
compound=COc1ccc([C@@H]2CC(=O)c3c(O)cc(O[C@@H]4O[C@H](CO[C@@H]5O[C@@H](C)[C@H](OS(=O)(=O)[O-])[C@@H](OS(=O)(=O)[O-])[C@H]5OS(=O)(=O)[O-])[C@@H](OS(=O)(=O)[O-])[C@H](OS(=O)(=O)[O-])[C@H]4OS(=O)(=O)[O-])cc3O2)cc1O.[Na+].[Na+].[Na+].[Na+].[Na+].[Na+] quantity_kind=AUC val="1200 AU.min"

For each of the compounds below, state AUC.
1. COc1ccc(-c2cc(=O)c3c(O)cc(O[C@@H]4O[C@H](CO[C@@H]5O[C@@H](C)[C@H](OS(=O)(=O)[O-])[C@@H](OS(=O)(=O)[O-])[C@H]5OS(=O)(=O)[O-])[C@@H](OS(=O)(=O)[O-])[C@H](OS(=O)(=O)[O-])[C@H]4OS(=O)(=O)[O-])cc3o2)cc1O.[Na+].[Na+].[Na+].[Na+].[Na+].[Na+]
2. O=S(=O)([O-])OC[C@H]1O[C@@H](Oc2cc(/C=C/c3ccc(OS(=O)(=O)[O-])cc3)cc(OS(=O)(=O)[O-])c2)[C@H](OS(=O)(=O)[O-])[C@@H](OS(=O)(=O)[O-])[C@@H]1OS(=O)(=O)[O-].[Na+].[Na+].[Na+].[Na+].[Na+].[Na+]

1: 1090 AU.min; 2: 1020 AU.min
